test system: A549 pERK; assay: A549-pERK, 2 h (quantitative Western, Jess); assay type: cell-based; conditions: Homo sapiens, A549, 2 h, 10 nM, phospho:total ratio normalized to DMSO control
This section presents compounds with their documented activity at 0.01 µM values.
Note: unit % is implicit; provide only the numeric part.

// known answers, use as guide
INSERT INTO measurements (compound, valuekind, unittext, testvalue) VALUES
  ('CNS(=O)(=O)Nc1cccc(Cc2c(CN3CCNCC3)c3cc(F)c(OC(=O)N(C)C)cc3oc2=O)c1F', 'activity at 0.01 µM', '%', 33.1),
  ('CNS(=O)(=O)Nc1cccc(Cc2c(CN3CC(N)C3)c3ccc(OC(=O)N(C)C)cc3oc2=O)c1F', 'activity at 0.01 µM', '%', 104),
  ('C#CCNCc1c(Cc2cccc(NS(=O)(=O)NC)c2F)c(=O)oc2cc(OC(=O)N(C)C)ccc12', 'activity at 0.01 µM', '%', 64),
  ('CNS(=O)(=O)Nc1cccc(Cc2c(CN(C)CC3CC3)c3ccc(OC(=O)N(C)C)cc3oc2=O)c1F', 'activity at 0.01 µM', '%', 83.2),
  ('CNS(=O)(=O)Nc1nccc(Cc2c(CN(C)C)c3cc(F)c(OC(=O)N(C)C)cc3oc2=O)c1F', 'activity at 0.01 µM', '%', 65),
  ('CNS(=O)(=O)Nc1cccc(Cc2c(CN3CC4CC3CN4)c3ccc(OC(=O)N(C)C)cc3oc2=O)c1F (stereo not shown)', 'activity at 0.01 µM', '%', 96.9);

Shift focus to the following entry.
Task: What value of measured activity at 0.01 µM is listed for `CNS(=O)(=O)Nc1cccc(Cc2c(CNCC3CC3)c3ccc(OC(=O)N(C)C)cc3oc2=O)c1F` ?
Output: 94.2
